- Study system: T1, human CD80-murine Ig fusion protein (human)
- T1 construct: Bought (Ancell #510-820); also called hCD80-mIg; human CD80-murine IgG
- T1 chain: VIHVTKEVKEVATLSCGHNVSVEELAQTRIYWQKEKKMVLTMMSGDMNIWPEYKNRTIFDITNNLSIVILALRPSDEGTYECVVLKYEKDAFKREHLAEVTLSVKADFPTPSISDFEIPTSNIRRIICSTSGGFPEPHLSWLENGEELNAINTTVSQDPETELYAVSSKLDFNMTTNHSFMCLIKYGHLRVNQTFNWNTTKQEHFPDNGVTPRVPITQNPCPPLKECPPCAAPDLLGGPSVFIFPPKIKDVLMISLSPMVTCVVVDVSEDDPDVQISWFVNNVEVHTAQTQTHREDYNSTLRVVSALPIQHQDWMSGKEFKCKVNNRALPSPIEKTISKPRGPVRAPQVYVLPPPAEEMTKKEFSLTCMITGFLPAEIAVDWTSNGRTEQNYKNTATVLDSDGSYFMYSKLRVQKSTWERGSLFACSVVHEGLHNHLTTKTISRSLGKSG
- Experiment: SPR Biacore, hCD80-mIg captured
Assay metric: Kd

Some solved entries appear below for comparison.
[[record]]
binder = "D3-15-IgG2 (Fc fusion) MHVAQPAVVLASSRGIASFVCEYESPGKANEIRVTVLRQADSQVTEVCAMTYMKGDELTFLDDPSCTGTFSGNQVNLTIQGLRAMDTGLYICKVELMYPPPYYLGFGNGTQIYVIDPEPCPDSDERKCCVECPPCPAPPVAGPSVFLFPPKPKDTLMISRTPEVTCVVVDVSHEDPEVQFNWYVDGVEVHNAKTKPREEQFNSTFRVVSVLTVVHQDWLNGKEYKCKVSNKGLPAPIEKTISKTKGQPREPQVYTLPPSREEMTKNQVSLTCLVKGFYPSDIAVEWESNGQPENNYKTTPPMLDSDGSFFLYSKLTVDKSRWQQGNVFSCSVMHEALHNHYTQKSLSLSPG"
result = "0.439 to 1.75 nM"

[[record]]
binder = "D3-5-IgG2 (Fc fusion) MHVAQPAVVLASSRGIASFVCEYESPGKANEIRVTVLRQAGSQVTEVCAATYMKGDELTFLDDPSCTGTFSGNQVNLTIQGLRAADTGLYICKVELMYPPPYYLGFGNGTQIYVIDPEPCPDSDERKCCVECPPCPAPPVAGPSVFLFPPKPKDTLMISRTPEVTCVVVDVSHEDPEVQFNWYVDGVEVHNAKTKPREEQFNSTFRVVSVLTVVHQDWLNGKEYKCKVSNKGLPAPIEKTISKTKGQPREPQVYTLPPSREEMTKNQVSLTCLVKGFYPSDIAVEWESNGQPENNYKTTPPMLDSDGSFFLYSKLTVDKSRWQQGNVFSCSVMHEALHNHYTQKSLSLSPG"
result = "0.439 to 1.75 nM"

[[record]]
binder = "D23-IgG2 (Fc fusion) MHVAQPAVVLASSRGIASFVCEYSAPHNAAEIRVTVLRKAGSQVTEVCAMTYMKEDELTFLDDPSCTGTFSGNQVNLTIQGLRAADTGLYICKVELMYPPPYYLGLGNGTQIYVIDPEPCPDSDERKCCVECPPCPAPPVAGPSVFLFPPKPKDTLMISRTPEVTCVVVDVSHEDPEVQFNWYVDGVEVHNAKTKPREEQFNSTFRVVSVLTVVHQDWLNGKEYKCKVSNKGLPAPIEKTISKTKGQPREPQVYTLPPSREEMTKNQVSLTCLVKGFYPSDIAVEWESNGQPENNYKTTPPMLDSDGSFFLYSKLTVDKSRWQQGNVFSCSVMHEALHNHYTQKSLSLSPG"
result = "< 0.439 nM"


Now examine the next entry.
Could you share which Kd value was measured for D5-IgG2 (Fc fusion) MHVAQPAVVLASSRGIASFVCEYASPGKATEVRVTVLRQADSQVTEVCAATYMMGDELTFLDDPICTGTFSGNQVNLTIQGLRAMDTGLYICKVELMYPPPYYLGIGNGTQIYVIDPEPCPDSDERKCCVECPPCPAPPVAGPSVFLFPPKPKDTLMISRTPEVTCVVVDVSHEDPEVQFNWYVDGVEVHNAKTKPREEQFNSTFRVVSVLTVVHQDWLNGKEYKCKVSNKGLPAPIEKTISKTKGQPREPQVYTLPPSREEMTKNQVSLTCLVKGFYPSDIAVEWESNGQPENNYKTTPPMLDSDGSFFLYSKLTVDKSRWQQGNVFSCSVMHEALHNHYTQKSLSLSPG ? 0.439 to 1.75 nM
